# System: HOP-92 NSCLC
# experiment-description: NCI tumour cell line growth inhibition, 48 h
observable: GI50

## Task Any idea what GI50 was measured for CC(=O)[O][Pb]([O]C(C)=O)([c]1ccccc1)[c]1ccccc1 ?
## Result 3.62 µM

## Task Any idea what GI50 was measured for CCC[CH2][Sn]([CH2]CCC)([O]C(C)=O)[O]C(C)=O ?
## Result 1.92 µM

## Task Any idea what GI50 was measured for Cc1cc(N2CCCCC2)nc(N(CCNc2ccnc3cc(Cl)ccc23)Cc2ccco2)n1 ?
## Result 5.73 µM

## Task Any idea what GI50 was measured for CCCN(Cc1ccc(F)cc1)c1ccc(CO)c(Cl)c1 ?
## Result 2.66 µM

## Task Any idea what GI50 was measured for COc1ccc2c(c1)CCC1C2CCC2(C)C1CCC2(O)CNC(=O)CCCCC1CCSS1 (stereo not given) ?
## Result 4.9 µM

---

# Tested on: NCI-H522 lung
# experiment-description: NCI tumour cell line growth inhibition, 48 h
I'd appreciate it if you could supply TGI values for the items below.
Only the number, expressed in µM, is required.

## Task Any idea what TGI was measured for CCOC(=O)c1nc2ccc(C(F)(F)F)cc2nc1NCc1ccc(Cl)c(Cl)c1 ?
## Result 33.5

## Task Any idea what TGI was measured for c1ccc(Nc2nnc(CSc3nc(-c4ccccc4)c(-c4ccccc4)[nH]3)s2)cc1 ?
## Result 34.9

## Task Any idea what TGI was measured for O=C(NC(C(F)(F)F)(C(F)(F)F)P(=O)(c1ccccc1)c1ccccc1)C(C(F)(F)F)C(F)(F)F ?
## Result 71.6

---

# Tested on: CCRF-CEM leukemia
# experiment-description: NCI tumour cell line growth inhibition, 48 h
observable: TGI (µM)
Only the number, expressed in µM, is required.

## Task Param readout = TGI; param system = CCRF-CEM leukemia; param query = CC1Oc2cc3c(-c4c(O)cc(O)c5c(O)c6c(cc45)OC(C)C(C)C6=O)c(O)cc(O)c3c(O)c2C(=O)C1C (stereo not given) ; response: value
## Result 0.148

## Task Param readout = TGI; param system = CCRF-CEM leukemia; param query = C=C1C(=O)C([Si](C)(C)C)=C2C=C(C)C3(CC3)C12C (stereo not given) ; response: value
## Result 11

---

# Tested on: HL-60(TB) leukemia
# experiment-description: NCI tumour cell line growth inhibition, 48 h
observable: TGI (µM)
Only the number, expressed in µM, is required.

## Task Any idea what TGI was measured for CSc1nc2ccccc2c(=O)n1/N=C1\C(=O)N(CN2CCCCC2)c2ccc(Cl)cc21 ?
## Result 50.1

## Task Any idea what TGI was measured for Cc1ccc(NCC2CC/C(=C\c3ccc(Cl)cc3)C2=O)cc1 (stereo not drawn) ?
## Result 13.7

## Task Any idea what TGI was measured for COc1cc(Cn2cc3c(c2)-c2oncc2CC3)cc(OC)c1OC ?
## Result 0.456

## Task Any idea what TGI was measured for O=C(O)C1C(C(=O)O)C2C(=O)C=CC1N2Cc1ccccc1 (stereo not drawn) ?
## Result 4.31

## Task Any idea what TGI was measured for O=S(=O)([O-])[O-].[Fe+2].c1ccc(/C(=N\Nc2ccccn2)c2ccccn2)cc1 ?
## Result 4.62

## Task Any idea what TGI was measured for CC12CCC(=O)C(O1)C1C(=O)c3cc4ccccc4cc3C(=O)C12 (stereo not drawn) ?
## Result 48

## Task Any idea what TGI was measured for CCOC(=O)/C(N=Nc1ccc(-n2c(C)nc3ccccc3c2=O)cc1)=C(/C)O ?
## Result 41.2

## Task Any idea what TGI was measured for CC1(C)CCC2(C(=O)OC3OC(CO)C(O)C(O)C3O)CC[C@]3(C)C(=CCC4C5(C)CC[C@H](OC6OC(C(=O)O)C(O)C(O)C6O)C(C)(C)C5CCC43C)C2C1 (stereo partly drawn) ?
## Result 3.45

## Task Any idea what TGI was measured for O=C1CSC2(CC(/C=C/c3ccccc3O)=NN2c2cccc(S(=O)(=O)O)c2)N1c1nc2ccccc2s1 (stereo not drawn) ?
## Result 49

## Task Any idea what TGI was measured for C=C1C(=O)C([Si](C)(C)C)=C2C=C(C)C3(CC3)C12C (stereo not drawn) ?
## Result 34.8

## Task Any idea what TGI was measured for CN(C)CCNC(=O)c1cccn2c(=O)c3cc4ccccc4cc3nc12 ?
## Result 9.73

## Task Any idea what TGI was measured for COc1cc2cc(Oc3ccc(NC(=O)Nc4ccc(Cl)c(C(F)(F)F)c4)cc3)c(C)nc2cc1OCCN1CCCCC1 ?
## Result 3.53

## Task Any idea what TGI was measured for CC(C)(O)c1ccc(N2CCN(c3nnc(Cc4ccccc4)c4ccccc34)CC2)nc1 ?
## Result 31.1

## Task Any idea what TGI was measured for COc1cccc(OC(=O)c2ccccc2Nc2ccnc(C(F)(F)F)c2)c1 ?
## Result 15.2

## Task Any idea what TGI was measured for CC1Oc2cc3c(-c4c(O)cc(O)c5c(O)c6c(cc45)OC(C)C(C)C6=O)c(O)cc(O)c3c(O)c2C(=O)C1C (stereo not drawn) ?
## Result 0.65

## Task Any idea what TGI was measured for Cc1nn2c(=O)c([N+](=O)[O-])c(/C=C/c3ccccc3)nc2s1 ?
## Result 5.61

## Task Any idea what TGI was measured for CCN=C1C=CC(=C(c2ccc(N(C)C)cc2)c2ccc(N(C)C)cc2)c2ccccc21 ?
## Result 0.141

## Task Any idea what TGI was measured for CCN(CC)CCOc1ccc(C(=C(C)c2ccc(Cl)cc2)c2ccc(OCCN(CC)CC)cc2)cc1 ?
## Result 1.34

## Task Any idea what TGI was measured for O=C(NC(C(F)(F)F)(C(F)(F)F)P(=O)(c1ccccc1)c1ccccc1)C(C(F)(F)F)C(F)(F)F ?
## Result 63.2

## Task Any idea what TGI was measured for OCC1OC(n2ccc3c2ncn2ncnc32)C(O)C1O (stereo not drawn) ?
## Result 5.5

## Task Any idea what TGI was measured for COC(=O)N1C[C@@]2(C=CC3(CC2)OCCO3)c2ccccc21 ?
## Result 58.4

## Task Any idea what TGI was measured for COc1cc(S(=O)(=O)Nc2ccc(-c3csc(N4C(=O)CSC4c4cccs4)n3)cc2)ccc1Cl (stereo not drawn) ?
## Result 41.5

---

# Tested on: NCI-H460 lung
# experiment-description: NCI tumour cell line growth inhibition, 48 h
*1 amine or outer side, *2 acyl side, *3 side chain or, on linkers, in order; H or OH if unused. Where a SMILES comes first, the peptide text is derived from it. Bridges are numbered along the chain shown (N, C = ends). [ ]: non-standard residue; d: D form. The star is where a group is joined. X38 = CC[C@H](C)[C@@H](N[*:1])[C@@H](O)CC(=O)[*:2]; NMeY = CN[C@@H](Cc1ccc(O)cc1)C(=O)O; dNMeL = CN[C@H](CC(C)C)C(=O)O; Hiv = CC(C)[C@H](O)C(=O)O; Pyruvoyl = CC(=O)C(=O)*
observable: TGI

## Task Any idea what TGI was measured for CC(C)=CCOc1cc(NC(=S)c2ccoc2C)ccc1Cl ?
## Result > 100 µM

## Task Any idea what TGI was measured for NC(=O)c1cc2ccccc2oc1=Nc1ccccc1 ?
## Result > 100 µM

## Task Any idea what TGI was measured for CC#COP(=O)(OCC)OCC ?
## Result > 100 µM

## Task Any idea what TGI was measured for CC1=C(C(=O)Nc2cccc3c2C(=O)NC3=O)CC(C(=O)Nc2cccc3c2C(=O)NC3=O)=C(C)N1 ?
## Result > 100 µM

## Task Any idea what TGI was measured for O=C(NO)c1ccc([N+](=O)[O-])cc1 ?
## Result > 100 µM

## Task Any idea what TGI was measured for Oc1ccccc1/C=N/Nc1nnc2c3ccccc3c3ccccc3c2n1 ?
## Result > 100 µM

## Task Any idea what TGI was measured for CCOC(=O)c1nc2ccc(C(F)(F)F)cc2nc1NCc1ccc(Cl)c(Cl)c1 ?
## Result > 100 µM

## Task Any idea what TGI was measured for CC(=O)[O][Pb]([O]C(C)=O)([c]1ccccc1)[c]1ccccc1 ?
## Result > 100 µM

## Task Any idea what TGI was measured for O=C(CCl)c1ccc([N+](=O)[O-])o1 ?
## Result 28.1 µM

## Task Any idea what TGI was measured for C=C1C(=O)C([Si](C)(C)C)=C2C=C(C)C3(CC3)C12C (stereo not given) ?
## Result > 100 µM

## Task Any idea what TGI was measured for C[C@]12CC[C@H]3[C@@H](CCC4=CC(=O)CC[C@@H]43)[C@@H]1CC[C@@H]2OC(=O)N(CCCl)N=O ?
## Result 2.45 µM

## Task Any idea what TGI was measured for CC[C@H](C)[C@H]1NC(=O)[C@@H](NC(=O)[C@@H](CC(C)C)N(C)C(=O)[C@@H]2CCCN2C(=O)C(C)=O)[C@@H](C)OC(=O)[C@H](Cc2ccc(OC)cc2)N(C)C(=O)[C@@H]2CCCN2C(=O)[C@H](CC(C)C)NC(=O)[C@H](C(C)C)OC(=O)C[C@@H]1O (Pyruvoyl-P[dNMeL]T[X38][Hiv]LP[NMeY](Me); ester 3-C) ?
## Result 0.0321 µM

## Task Any idea what TGI was measured for O=C(O)[C@@H]1C2CC([C@@H]1C(=O)O)[C@H](N1C(=O)CCC1=O)[C@@H]2Br (stereo not given in full) ?
## Result > 100 µM

## Task Any idea what TGI was measured for CC1=C(C(=O)OCc2ccccc2)C(c2ccc3c(c2)OCO3)n2c(nc3ccccc32)N1 (stereo not given) ?
## Result > 100 µM

## Task Any idea what TGI was measured for C[C@H]1[C@H](C)N(Cc2ccccc2)P(=O)(C(O)/C=C/c2ccccc2)N1Cc1ccccc1 (stereo not given in full) ?
## Result 10.2 µM

## Task Any idea what TGI was measured for CC12CCC(=O)C=C1CCC1C2CCC2(C)C(C(=O)Cn3cnc4c(=S)nc[nH]c43)CCC12 (stereo not given) ?
## Result > 100 µM

## Task Any idea what TGI was measured for COc1cc(/C=C\c2ccccn2)cc(OC)c1OC ?
## Result > 100 µM

## Task Any idea what TGI was measured for CC1(C)C(=O)N(O)C(C)(C)N1O ?
## Result > 10 µM

## Task Any idea what TGI was measured for CSC1=N[C@H](c2ccccc2)CS1 ?
## Result > 100 µM

## Task Any idea what TGI was measured for COc1ccc(C2c3cc4c(cc3C(O)C3CCC(=O)N23)OCO4)cc1 (stereo not given) ?
## Result > 100 µM

## Task Any idea what TGI was measured for CC1=C/C(=N\OCC(=O)O)CC(c2ccc(C(C)C)cc2)C1 (stereo not given) ?
## Result > 100 µM

## Task Any idea what TGI was measured for O=C1c2ccccc2C(=O)N1CC1(C(=O)O)NCCS1(=O)=O (stereo not given) ?
## Result > 100 µM

## Task Any idea what TGI was measured for C=CCONC(=O)c1ccc(Cl)cc1 ?
## Result > 100 µM

## Task Any idea what TGI was measured for Cc1nn2c(=O)c([N+](=O)[O-])c(/C=C/c3ccccc3)nc2s1 ?
## Result 29 µM

## Task Any idea what TGI was measured for CCCCCCn1c(SCC)c2ccccc2c1-c1nc(F)nc(F)n1 ?
## Result > 100 µM

## Task Any idea what TGI was measured for N#Cc1ncc(/N=C/c2ccc(N(CCCl)CCCl)cc2)s1 ?
## Result 66.8 µM

## Task Any idea what TGI was measured for O=C(NCCCCCCNC(=O)c1cccc2ccccc12)c1cccc2ccccc12 ?
## Result > 100 µM

## Task Any idea what TGI was measured for CC1Oc2cc3c(-c4c(O)cc(O)c5c(O)c6c(cc45)OC(C)C(C)C6=O)c(O)cc(O)c3c(O)c2C(=O)C1C (stereo not given) ?
## Result 0.163 µM

## Task Any idea what TGI was measured for O=C(CCn1[nH]c(=O)c(Cl)c(Cl)c1=O)NOCCCc1ccccc1 ?
## Result > 100 µM

## Task Any idea what TGI was measured for O=S(=O)([O-])[O-].[Fe+2].c1ccc(/C(=N\Nc2ccccn2)c2ccccn2)cc1 ?
## Result 8.55 µM

## Task Any idea what TGI was measured for Cc1cc(N2CCCCC2)nc(N(CCNc2ccnc3cc(Cl)ccc23)Cc2ccco2)n1 ?
## Result 3.34 µM

## Task Any idea what TGI was measured for O=C1c2cc3c(cc2CC12Cc1cc4c(cc1C2=O)CCCC4)CCCC3 ?
## Result > 100 µM

## Task Any idea what TGI was measured for CC(C)c1ccccc1SC1CC(=O)CC(Sc2ccccc2C(C)C)C12O[C@H](c1ccccc1)[C@@H](c1ccccc1)O2 (stereo not given in full) ?
## Result > 100 µM

## Task Any idea what TGI was measured for CCOC(=O)c1ccc(C(=O)OCC)n1-c1cc2cc(c1)CSCc1cc(cc(-n3c(C(=O)OCC)ccc3C(=O)OCC)c1)CSC2 ?
## Result > 10 µM

## Task Any idea what TGI was measured for COC12C=CC(CC1)c1c(O)ccc(O)c12 (stereo not given) ?
## Result > 100 µM

## Task Any idea what TGI was measured for CCOC(=O)C(c1c[nH]c2ccccc12)(c1c[nH]c2ccccc12)c1c[nH]c2ccccc12 ?
## Result > 100 µM

## Task Any idea what TGI was measured for COc1ccc(Br)c2c1CC(C(=O)O)CC2 (stereo not given) ?
## Result > 100 µM

## Task Any idea what TGI was measured for NC(=O)OCC(COc1ccc(Cl)cc1)OC(=O)c1ccccc1Cl (stereo not given) ?
## Result 30.9 µM

## Task Any idea what TGI was measured for CCc1ccc(NC(=O)Nc2c[nH]c3ccccc23)cc1 ?
## Result > 49.6 µM

## Task Any idea what TGI was measured for N#CSc1ncnc2nc[nH]c12 ?
## Result > 100 µM
